- Study System: T1, recombinant human OX40-Fc (human, UniProt P43489 29-214)
- T1 construct: also called rh-OX40-Fc; human OX40 hFC (R & D systems)
- T1 sequence: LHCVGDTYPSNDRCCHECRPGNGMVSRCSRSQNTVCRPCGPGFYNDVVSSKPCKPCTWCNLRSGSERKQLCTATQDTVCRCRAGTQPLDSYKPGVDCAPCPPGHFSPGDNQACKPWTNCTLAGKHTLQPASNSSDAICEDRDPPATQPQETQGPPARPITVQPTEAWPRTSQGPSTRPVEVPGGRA
- Experiment Notes: ELISA, OX40-Fc coated, VHH at 8 nM
Please provide measured OD450 for the entries that follow.
// no unit, no text: just the number

For this binder ( pgXX88-84 (VHH, not shown: small tags and cut ends) VHH: EVQLVESGGRLVQAGDSLKLSCTASGRTFSDYVMGWFRQVPGEGRLMVAVITPAGDTTEYADAVKGRFSISKDSAKRTVNLQMNNLKVDDTAVYYCAAGPSWIGMQFGTAEYWGQGTQVTVSS ), measured OD450 is 0.31

For this binder ( pgXX88-10 (VHH, not shown: small tags and cut ends) VHH: EVQLVESGGGLVQAGESLRLSCSASGSIRLNAVGWFRQAPVNQRLMVATITHNNSTNYADSVQGRFTIARDDAKNTVTLQMNSLKPEDTAVYMCKVYQLPVPISSHDDYWGQGTQVTVSS ), measured OD450 is 1.48

The binder pgXX88-SZ-15 (VHH, not shown: small tags and cut ends) VHH: QVQLVESGGGLVQPGGSLRLSCSPSEGAFKMLTTGWFRQVLGKEREFVSAISWGGGATYYADSVKGRFTVSRDNAKNTVYLQMNSLKPEDTAVYYCAVDTGNGVATNIRSQSRYDYWGQGTQVTVSS showed OD450 equal to 1.89

Note to self: OD450 recorded for pgXX88-19 (VHH, not shown: small tags and cut ends) VHH: EVQLVESGGGLVQAGGSLRLSCVATGRTRSSTYIMAWFRQAPGKERDFVAAISFIGGSPVYTDSVKGRFTISRVIAENTVHLQMNDLTPEDTALYYCAATDSGPLGPSGPSKYEYWGQGTQVTVSS was 1.54
